target or system: Genome polyprotein (dengue virus type 2)
Sequence (P29990 1346-1475 limits assumed): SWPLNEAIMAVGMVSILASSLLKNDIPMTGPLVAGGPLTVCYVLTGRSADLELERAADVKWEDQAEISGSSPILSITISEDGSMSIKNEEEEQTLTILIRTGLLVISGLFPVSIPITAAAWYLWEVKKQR
Sequence (P29990 1476-2093 limits assumed): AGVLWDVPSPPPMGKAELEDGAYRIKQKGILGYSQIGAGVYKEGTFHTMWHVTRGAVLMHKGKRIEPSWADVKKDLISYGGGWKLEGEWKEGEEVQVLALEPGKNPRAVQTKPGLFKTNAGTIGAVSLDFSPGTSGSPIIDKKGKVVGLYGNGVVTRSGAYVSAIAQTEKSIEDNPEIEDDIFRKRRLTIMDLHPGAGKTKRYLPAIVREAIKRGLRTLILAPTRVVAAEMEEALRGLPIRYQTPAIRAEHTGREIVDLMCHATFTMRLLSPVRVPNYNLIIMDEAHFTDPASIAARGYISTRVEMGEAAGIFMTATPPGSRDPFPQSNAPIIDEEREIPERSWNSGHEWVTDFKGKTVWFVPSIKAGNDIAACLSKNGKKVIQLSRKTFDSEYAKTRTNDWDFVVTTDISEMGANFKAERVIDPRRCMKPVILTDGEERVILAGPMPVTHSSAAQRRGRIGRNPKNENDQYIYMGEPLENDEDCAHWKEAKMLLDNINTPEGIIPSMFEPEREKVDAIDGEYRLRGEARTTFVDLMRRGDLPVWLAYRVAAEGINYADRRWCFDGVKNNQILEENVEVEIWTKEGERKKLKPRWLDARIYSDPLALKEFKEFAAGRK
Format: functional, Thailand/16681/1984
readout label: IC50

1. O=C1Cc2c(cccc2C(=O)NC2CC3(CCOCC3)C2)N1
> 99.5 µM
2. CNC(=O)C[C@H]1NCc2cc(NC(=O)c3cc(Cl)cc4[nH]ncc34)ccc21
> 99.5 µM
3. Cc1cc(C(F)(F)F)nc(C(=O)Nc2cccc(CN)c2)n1
> 99.5 µM
4. O=C(O)[C@@H]1CC2(CC[C@@H]1NS(=O)(=O)c1ccc(Oc3ccccc3Cl)cc1)CC2
> 99.5 µM
5. CCn1ncc(-c2noc3nc(C)cc(C(=O)Nc4cccc(CN)c4)c23)c1C
> 99.5 µM
6. O=C(Nc1ccc2c(c1)CCNCC2)c1cc(Cl)cc2[nH]ncc12
47.5 µM
7. CNC(=O)C[C@H](Nc1cccc(F)n1)c1cc(Cl)cc(Br)c1
> 99.5 µM
8. C[C@H](C(=O)O)N(C)C(=O)c1cc(Cl)cc(NC(=O)OCc2ccccc2)c1
> 99.5 µM
9. O=C(Nc1cc(Cl)cc(C(=O)NCC[C@H]2C[C@@H]2C(=O)O)c1)OCc1ccccc1
> 99.5 µM
10. Cc1c(C(=O)Nc2cc(C(=O)N3CC(CO)C3)ccn2)cc(C2CC2)n1C
> 99.5 µM
11. CN1C(=O)C[C@H](C(=O)Nc2cccc(CN)c2)[C@H]1c1ccc(Cl)c(Cl)c1
> 99.5 µM
12. O=C(NCc1ccc(F)cc1)[C@H](Nc1ccc2c(c1)CNC2)c1cc(Cl)cc2[nH]ncc12
> 99.5 µM
13. O=C(O)COc1ccc(Cl)cc1[C@H](Nc1ccc2c(c1)CNC2)C(=O)NCC(F)F
> 99.5 µM
14. Cc1noc(C)c1C(=O)N[C@@H](C(=O)Nc1cccc(CN)c1)c1ccc(OCc2ccccc2)cc1
> 99.5 µM
15. NCc1cccc(NC(=O)c2cc(Cl)ccc2Oc2cccc(Cl)c2)c1
> 99.5 µM
16. CCOc1cccc(N2CC[C@@H](CO)C2)c1
> 99.5 µM
17. CCOC(=O)[C@H](Nc1ccc2c(c1)CNC2)c1cc(Cl)cc(C2CC2)c1
76.7 µM
18. Cc1ccc(CN)cc1-c1cccc([C@H](NC(=O)OCc2ccccc2)C(=O)Nc2cccc(CN)c2)c1
63.1 µM
19. NCc1cc(C(=O)N2CCNC(=O)C2)cc([C@@H]2C[C@H]2c2cc(Cl)cc(NC(=O)OCc3ccccc3)c2)c1
49.1 µM
20. NCc1cccc(NC(=O)c2cc(NC(=O)OCc3ccccc3)cc3c2OCCO3)c1
> 99.5 µM
21. O=C(Nc1cc(Cl)cc([C@H](Nc2cccc(-c3nn[nH]n3)c2)C(=O)N[C@H]2CCOC2)c1)OCc1ccccc1
40.3 µM

The measurements presented in this section are drawn from ChEMBL document CHEMBL5604063.
